tested on: MS2 coat protein; assay: apparent Kd, MS2 coat protein; higher = weaker binding; RNA-MaP array; FMN 200 µM where present; settings: ligand present: flavin mononucleotide; designed as: OFF switch for flavin mononucleotide
Mark false (0) for apparent Kd values under 40 nM, and true (1) for everything at or above.

{"ordered_residues": "CAUUUCAUGUCAGGAUAUCCGCGCAGCUUCACGCACGAUAUAAGGGAGCUUGGAGAAGGGACAUGAGGAUCACCCAUGUGCCUC", "qualitative_label": "false (0)"}
{"ordered_residues": "AAAAAACAUGAGGAUCACCCAUGUUAGGAUAUCCUGCAGAAAAAAAAAAAAAACUGCAGGAGAAGGAGCAAGGA", "qualitative_label": "true (1)"}
{"ordered_residues": "GCCUCAGAAUUAAUUGUGAGAGGCAGAAGGCUAUAUCUCGUGGUAAACAUGAGGAUCACCCAUGUAGAGGAUAUGCUAUUACAG", "qualitative_label": "false (0)"}
{"ordered_residues": "GGUGCUGUGUAGAAGGCAGAUCUGAUUCAGAUCUGAGGAUAUACAUGAGGAUCACCCAUGUUAAGCACCAGCACGAGAGUGCAA", "qualitative_label": "false (0)"}
{"ordered_residues": "GAUGUUCUGGUCAGGAUAUGCAUCCGUCGGCCGGAGCAGAAGGGACAUGAGGAUCACCCAUGUGCGGGUACAAA", "qualitative_label": "false (0)"}
{"ordered_residues": "GUCAGCUCGUGAGGAUAUACAACACUGCUUCGGCAGUGUAAUAAGAUCACAUGAGGAUCACCCAUGUAGAAGGCACGAGCUGAU", "qualitative_label": "true (1)"}
{"ordered_residues": "GAUAAGGAAGGAUAUGUGGCCUUAUACAUGAGGAUCACCCAUGUUACGACAUACCACUACACAGAAGGUCUAUUAC", "qualitative_label": "false (0)"}

###

test system: MS2 coat protein; assay: apparent Kd, MS2 coat protein; higher = weaker binding; RNA-MaP array; tryptophan 2.4 mM where present; conditions: ligand present: tryptophan; designed as: ON switch for tryptophan
Mark f for apparent Kd values under 20 nM, and t for everything at or above.

{"ordered_residues": "AGUACAUGAGGAUCACCCAUGUAUCGGUACCGAGGACCGGUACGGCCGCCACUCGCAGGACAUGAGGAUCACCCAUGUGCCGCCG", "qualitative_label": "t"}
{"ordered_residues": "AGCCACUCGAGUGAUCCUCACGAGUGGCUACGAGGACCGGUACGGCCGCCACUCGAAUUAACAUGAGGAUCACCCAUGUAAUCAC", "qualitative_label": "t"}
{"ordered_residues": "AGAGCAUUGACGGCCGCCACUCGUGUCACAUGAGGAUCACCCAUGUGACGGGUGAUCGCCCGGUUGAGGACCGGGUCAAUGCUCA", "qualitative_label": "f"}
{"ordered_residues": "CUAAAUAUAACGGCCGCCACUUACUCAUGAGGUAACAACAUGAGGAUCACCCAUGUUUGAGGAUCAAGGACCGGGUUAUAUUUAG", "qualitative_label": "f"}
{"ordered_residues": "AUAUAUACAUGAGGAUCACCCAUGUUAUUUCGAGGACCGGUACGGCCGCCACUCGAUAGAGUAGAAGUAAAUUUUAAUUCAUGUA", "qualitative_label": "f"}
{"ordered_residues": "CGAGUAGGUUCAAUCGAAUAACGGUUUUCGCGAGGACCGGUACGGCCGCCACUCGUGUGAUAUCACACAUGAGGAUCACCCAUGU", "qualitative_label": "t"}
{"ordered_residues": "AUUCAUGGAAACAUGACAUAGGGAUCUAGCCGAGGACCGGUACGGCCGCCACUCGCUUGGAGGCACAUGAGGAUCACCCAUGUUA", "qualitative_label": "t"}
